System: Zika virus NS2B-NS3 protease (linked construct)
Experiment: Primary screen NINDS Rhodamine qHTS for Zika virus inhibitors (AID 1347160); also: % is scaled to controls: 0 for no effect and ±100 for the full control effect; nearly all actives have a fitted effect of over 55% in size
Conditions: purified NS2B-NS3 protease, Rhodamine110 substrate fluorescence; series mostly up to 57.1 µM
Inconclusive results are not listed. Activity calls are given as the source filed them. Calls follow the shape of the dose curve; as a rule, active = well fitted inhibition curve with a large enough effect; inconclusive = small, poorly fitted or top-dose-only effect; inactive = no such curve, though single readings can be large or run the other way.

# compound, activity change, negative = inhibition
rows = [
    ("C[C@@H]1O[C@@H](O[C@H]2[C@H](OC(=O)[C@]34CCC(C)(C)C[C@H]3C3=CCC5[C@@]6(C)C[C@H](O)[C@H](O[C@@H]7O[C@H](CO)[C@@H](O)[C@H](O)[C@H]7O)[C@](CO)(C(=O)O)C6CC[C@@]5(C)[C@]3(C)C[C@H]4O)OC[C@H](O)[C@@H]2O)[C@H](O)[C@H](O)[C@H]1O[C@@H]1OC[C@@H](O)[C@H](O[C@@H]2OC[C@](O)(CO)[C@H]2O)[C@H]1O (stereo not given in full)", "31.9% [at 10.7 µM] (inactive)"),
    ("C=C1CO[C@@]2(O[C@H]3CC4C5CC=C6C[C@@H](O)C[C@@H](O[C@@H]7OC[C@H](O)[C@H](O[C@@H]8OC[C@@H](O)[C@H](O)[C@H]8O)[C@H]7O[C@@H]7O[C@@H](C)[C@H](OC(C)=O)[C@@H](OC(C)=O)[C@H]7OC(C)=O)[C@]6(C)C5CC[C@]4(C)[C@@H]3[C@@H]2C)[C@@H](O)[C@H]1OC1OC(C)C(O)C(O)C1O (stereo not given in full)", "5.43% [at 10.7 µM] (inactive)"),
    ("CNC1CN(c2ccc3c(=O)c(C(=O)O)cn(-c4nccs4)c3n2)CC1OC (stereo not given)", "19.1% [at 10.7 µM] (inactive)"),
    ("C=CC(C)(O)CC/C=C(\\C)C(=O)OC1C(O)C(CO)OC(OC(=O)C23CCC(C)(C)CC2C2=CCC4C5(C)CCC(OC6OC(COC7OCC(OC(C)=O)C(O)C7OC7OC(COC(C)=O)C(O)C(O)C7OC(C)=O)C(O)C(O)C6OC6OCC(O)C(O)C6O)C(C)(C)C5CCC4(C)C2(C)C(O)C3O)C1OC1OCC(OC2OCC(O)C(OC3OCC(O)C(O)C3O)C2O)C(O)C1O (stereo not given)", "-13.7% [at 10.7 µM] (inactive)"),
    ("CC(=O)O[C@@H]1C[C@]2(C)[C@@]3(CCC4[C@@]5(C)CC[C@H](O[C@@H]6O[C@H](C(=O)O)[C@@H](O)[C@H](OC7OC(CO)C(O)C(O)[C@H]7O[C@@H]7O[C@@H](C)[C@H](O)[C@@H](O)[C@H]7O[C@@H]7OC[C@](O)(CO)[C@H]7O)[C@H]6OC6OC(CO)C(O)C(O)C6O)C(C)(C)C5CC[C@]42C)OC[C@@]12CCC(C)(C)CC23 (stereo not given in full)", "-13.3% [at 10.7 µM] (inactive)"),
]

This collection of values is drawn from PubChem BioAssay (NCATS).
